The measured values listed here are drawn from the supplement of paper PMC11061612.

Tested on: RCC10RGB (Kidney Carcinoma)
PROCEDURE DETAILS: Bliss excess, mean over the matrix (fraction); higher = more synergy;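 further: after 72 h of two-drug dosing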
MEASURE NAME: Bliss excess

The examples below pair each entry with its known result.
• Cc1c2c(nn1C)CSCc1cc(n(C)n1)CSc1cc(c3ccccc3c1)OCCCc1c(C(=O)O)n(C)c3c-2c(Cl)ccc13 [AZD5991] + CN(C)CCCOc1ccc(-c2ccc3ncc4c(c3c2)n(C2CCOCC2)c(=O)n4C)cn1 [AZD0156] (first compound max 1 µM, 7x7, partner max 1 µM) = -0.0619
• Cc1nc(Nc2ncc(C(=O)Nc3c(C)cccc3Cl)s2)cc(N2CCN(CCO)CC2)n1 [Dasatinib] + CC(=O)Nc1cccc(-n2c(=O)n(C3CC3)c(=O)c3c(Nc4ccc(I)cc4F)n(C)c(=O)c(C)c32)c1 [Trametinib] (first compound max 2 µM, 7x7, partner max 1 µM) = -0.0719
• COc1cccc(OCCCN)c1-c1cc(Nc2cnc(C#N)cn2)n[nH]1 [Prexasertib] + Cc1cc2ncnn2cc1Nc1ncc2c(n1)n(C1CCOCC1)c(=O)n2C [AZD7648] (first compound max 1 µM, 7x7, partner max 10 µM) = -0.075
• COc1cccc(OCCCN)c1-c1cc(Nc2cnc(C#N)cn2)n[nH]1 [Prexasertib] + C=CCn1c(=O)c2cnc(Nc3ccc(N4CCN(C)CC4)cc3)nc2n1-c1cccc(C(C)(C)O)n1 [AZD1775] (first compound max 1 µM, partner max 1 µM) = -0.0202
• C=CCn1c(=O)c2cnc(Nc3ccc(N4CCN(C)CC4)cc3)nc2n1-c1cccc(C(C)(C)O)n1 [AZD1775] + C1CN(CCC1(C(=O)N[C@@H](CCO)C2=CC=C(C=C2)Cl)N)C3=NC=NC4=C3C=CN4 [Capivasertib] (first compound max 3 µM, partner max 3 µM) = -0.0144

Read off the recorded Bliss excess for CC1(C)CCC(CN2CCN(c3ccc(C(=O)NS(=O)(=O)c4ccc(NCC5CCOCC5)c([N+](=O)[O-])c4)c(Oc4cnc5[nH]ccc5c4)c3)CC2)=C(c2ccc(Cl)cc2)C1 [Venetoclax] + Cn1cnc2c(F)c(Nc3ccc(Br)cc3Cl)c(C(=O)NOCCO)cc21 [Selumetinib] (first compound max 1 µM, 7x7, partner max 3 µM)
-0.079

Read off the recorded Bliss excess for Cc1c2c(nn1C)CSCc1cc(n(C)n1)CSc1cc(c3ccccc3c1)OCCCc1c(C(=O)O)n(C)c3c-2c(Cl)ccc13 [AZD5991] + CCN(CCO)CCCOc1ccc2c(Nc3cc(CC(=O)Nc4cccc(F)c4)[nH]n3)ncnc2c1 [AZD2811] (first compound max 1 µM, 7x7, partner max 1 µM)
-0.0567

###

Test system: YT (Other Blood Carcinomas)
PROCEDURE DETAILS: Bliss excess, mean over the matrix (fraction); higher = more synergy
Where Bliss excess equals or exceeds 0.02, the correct label is true; where it does not, the label is false.

• Cn1cnc2c(F)c(Nc3ccc(Br)cc3Cl)c(C(=O)NOCCO)cc21 [Selumetinib] + C=CCn1c(=O)c2cnc(Nc3ccc(N4CCN(C)CC4)cc3)nc2n1-c1cccc(C(C)(C)O)n1 [AZD1775] (first compound max 10 µM, partner max 1 µM) = false
• CN(C)CCCOc1ccc(-c2ccc3ncc4c(c3c2)n(C2CCOCC2)c(=O)n4C)cn1 [AZD0156] + O=C(c1cc(Cc2n[nH]c(=O)c3ccccc23)ccc1F)N1CCN(C(=O)C2CC2)CC1 [Olaparib] (first compound max 3 µM, partner max 3 µM) = true

We next turn to a different compound, shown below.
Kindly determine if Bliss excess recorded for Cc1c2c(nn1C)CSCc1cc(n(C)n1)CSc1cc(c3ccccc3c1)OCCCc1c(C(=O)O)n(C)c3c-2c(Cl)ccc13 [AZD5991] + CCN(CCO)CCCOc1ccc2c(Nc3cc(CC(=O)Nc4cccc(F)c4)[nH]n3)ncnc2c1 [AZD2811] (first compound max 1 µM, 7x7, partner max 1 µM) is above or exactly 0.02.
false
